target-entity: F876L mutant Androgen Receptor (AR-F876L) (Homo sapiens, UniProt P10275, F877L)
Construct: expressed in transfected cells; host or cells: LNCaP (LNCaP F876L)
Sequence (P10275 whole entry F877L): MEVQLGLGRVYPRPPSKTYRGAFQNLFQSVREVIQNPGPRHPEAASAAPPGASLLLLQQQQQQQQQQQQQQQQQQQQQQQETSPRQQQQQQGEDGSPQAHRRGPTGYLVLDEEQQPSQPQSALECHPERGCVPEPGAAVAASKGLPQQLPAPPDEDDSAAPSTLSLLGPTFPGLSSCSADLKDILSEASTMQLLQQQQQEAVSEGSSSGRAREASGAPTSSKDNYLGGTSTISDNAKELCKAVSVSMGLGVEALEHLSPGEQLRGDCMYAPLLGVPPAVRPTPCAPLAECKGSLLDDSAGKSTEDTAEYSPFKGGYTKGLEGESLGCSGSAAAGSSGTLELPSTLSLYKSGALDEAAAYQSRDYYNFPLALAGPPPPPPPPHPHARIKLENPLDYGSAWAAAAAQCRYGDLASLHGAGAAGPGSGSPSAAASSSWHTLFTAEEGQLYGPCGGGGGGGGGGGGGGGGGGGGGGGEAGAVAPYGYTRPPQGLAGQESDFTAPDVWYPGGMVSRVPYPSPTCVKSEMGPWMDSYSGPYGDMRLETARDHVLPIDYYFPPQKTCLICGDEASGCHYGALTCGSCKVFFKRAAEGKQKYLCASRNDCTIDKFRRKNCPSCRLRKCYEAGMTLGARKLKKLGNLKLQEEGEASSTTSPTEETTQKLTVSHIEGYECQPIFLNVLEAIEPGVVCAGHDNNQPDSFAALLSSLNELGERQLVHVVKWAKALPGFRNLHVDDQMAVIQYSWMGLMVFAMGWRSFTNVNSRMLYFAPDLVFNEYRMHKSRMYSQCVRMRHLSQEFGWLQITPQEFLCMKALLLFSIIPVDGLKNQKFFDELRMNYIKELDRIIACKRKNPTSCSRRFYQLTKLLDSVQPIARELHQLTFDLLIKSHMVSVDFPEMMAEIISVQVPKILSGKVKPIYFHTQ
method-notes: LNCaP-AR-F876L ANT reporter assay (ARE firefly luciferase, antagonist mode)
Format: cell-based
measurement-parameters: maximum % inhibition of R1881 control response over tested concentration range; read-out: LNCaP-AR-F876L ANT MAX % Inh
measured-metric: Emax (%)

CNC(=O)c1ccc(N2C(=S)N(c3cnc(C#N)c(C)c3)C(=O)C23CCC3)cc1OC :: 96.4
Cc1cc(N2C(=O)C3(CCC3)N(c3ccc(C(=O)NCC4CCOCC4)c(F)c3)C2=S)cnc1C#N :: 98.9
Cc1cc(N2C(=O)C(C)(C)N(c3ccc(OC4CCN(C)CC4)cc3)C2=S)cnc1C#N :: 101
N#Cc1ncc(N2C(=O)C3(CCC3)N(c3ccc(Oc4ncccn4)cc3)C2=S)cc1C(F)(F)F :: 97.3
N#Cc1ncc(N2C(=O)C3(CCC3)N(c3ccc(C(=O)NCCc4cccnc4)c(F)c3)C2=S)cc1C(F)(F)F :: 100
N#Cc1ncc(N2C(=O)C3(CCC3)N(c3cccc(Oc4ccccc4)c3)C2=S)cc1C(F)(F)F :: 95.4
CNC(=O)c1ccc(N2C(=S)N(c3cnc(C#N)c(C(F)F)c3)C(=O)C23CCC3)cc1F :: 94.4
CN1CCN(CCCNC(=O)c2ccc(N3C(=S)N(c4cnc(C#N)c(C(F)(F)F)c4)C(=O)C34CCC4)cc2F)CC1 :: 95.6

====

target-entity: wild-type Androgen Receptor (AR-wt) (Homo sapiens, UniProt P10275)
Construct: expressed in transfected cells; host or cells: LNCaP (LNCaP AR (cs))
method-notes: LNCaP-AR-wt ANT reporter assay (ARE firefly luciferase, antagonist mode)
Format: cell-based
measurement-parameters: maximum % inhibition of R1881 control response over tested concentration range; read-out: LNCaP-AR-wt ANT MAX % Inh
Procedure: A stable pooled-population cell line was generated using puromycin (Life Technologies) selection at 1:10,000 v/v. The protocol below was used for both cell lines and for testing of the compounds of Formula (I) of the present invention. LNCaP cells were grown to about 80% confluence, media removed and cells rinsed in Hank's balanced salt solution prior to separation from the plate with 0.05% Trypsin EDTA. […] After 1 h, plates were read for luminescence on a BMG Pherastar. […]
measured-metric: Emax (%)

N#Cc1ncc(N2C(=O)C3(CCC3)N(c3ccc(C(N)=O)c(F)c3)C2=S)cc1C(F)(F)F [Cpd 80] :: 100
Cc1cc(N2C(=O)C3(CCC3)N(c3ccc(C(=O)Nc4ccc(Cl)cc4)c(F)c3)C2=S)cnc1C#N [Cpd 74] :: 94.1
CN1CCC(NC(=O)c2ccc(N3C(=S)N(c4cnc(C#N)c(C(F)(F)F)c4)C(=O)C34CCC4)cc2F)CC1 [Cpd 109] :: 97.9
N#Cc1ncc(N2C(=O)C3(CCC3)N(c3ccc(C(=O)NCC4CCCC4)c(F)c3)C2=S)cc1C(F)(F)F [Cpd 21] :: 100
CNC(=O)c1ccc(N2C(=S)N(c3cnc(C#N)c(C)c3)C(=O)C23CCC3)cc1C [Cpd 5] :: 101
Cc1ccc(N2C(=S)N(c3cnc(C#N)c(C(F)(F)F)c3)C(=O)C23CCC3)cc1F [Cpd 115] :: 100
COCCOc1ccc(N2C(=S)N(c3cnc(C#N)c(C)c3)C(=O)C23CCC3)cc1F [Cpd 100] :: 102
N#Cc1ncc(N2C(=O)C3(CCC3)N(c3ccc(C4CCOCC4)cc3)C2=S)cc1C(F)(F)F [Cpd 89] :: 101
N#Cc1ncc(N2C(=O)C3(CCC3)N(c3ccc(OC(F)(F)F)cc3)C2=S)cc1C(F)(F)F [Cpd 38] :: 100
Cc1cc(N2C(=O)C3(CCC3)N(c3ccc(OCCN4CCN(C)CC4)cc3)C2=S)cnc1C#N [Cpd 10] :: 99
Cc1cc(N2C(=O)C3(CCC3)N(c3ccc(OC4CCN(CCO)CC4)cc3)C2=S)cnc1C#N [Cpd 60] :: 98.7
CCOC(=O)CCCNC(=O)c1ccc(N2C(=S)N(c3cnc(C#N)c(C(F)(F)F)c3)C(=O)C23CCC3)cc1F [Cpd 82] :: 103
CC(C)NC(=O)c1ccc(N2C(=S)N(c3cnc(C#N)c(C(F)(F)F)c3)C(=O)C23CCC3)cc1F [Cpd 23] :: 99.4
N#Cc1ncc(N2C(=O)C3(CCC3)N(c3ccc(C(=O)Nc4ccccc4)c(F)c3)C2=S)cc1C(F)(F)F [Cpd 73] :: 99.5
CS(=O)(=O)N1CCC(Oc2ccc(N3C(=S)N(c4cnc(C#N)c(C(F)(F)F)c4)C(=O)C34CCC4)cc2)CC1 [Cpd 122] :: 99.7
Cc1cc(N2C(=O)C3(CCC3)N(c3ccc(C(=O)Nc4ccccc4F)c(F)c3)C2=S)cnc1C#N [Cpd 11] :: 101
